- System: MALME-3M melanoma
- experimental-details: NCI tumour cell line growth inhibition, 48 h
readout-label: TGI

- compound: "Cc1ccc2nc(-c3ccc(NC(=O)c4ccc(N)cc4)c(S(=O)(=O)O)c3)sc2c1"
  endpoint-result: "> 100 µM"
- compound: "C/C(=N\\n1c(O)c(C#N)cc(C#N)c1=O)c1ccncc1"
  endpoint-result: "> 100 µM"
- compound: "O=C(O)c1c(Cl)c(Cl)c(Cl)c(Cl)c1C(=O)Nc1ccc2cn[nH]c2c1"
  endpoint-result: "> 100 µM"
- compound: "COC1OC(CBr)C(OC(=O)c2ccccc2)C(OS(=O)(=O)c2ccc(C)cc2)C1Br (stereo unspecified)"
  endpoint-result: "> 100 µM"
- compound: "COc1cc(C2C(C(=O)Nc3ccc([N+](=O)[O-])cc3)=C(C)NC(C)=C2C(=O)Nc2ccc([N+](=O)[O-])cc2)ccc1O"
  endpoint-result: "60 µM"
- compound: "O=C(O)C1CCCCN1C(=O)Cc1c[nH]c2ccccc12 (stereo unspecified)"
  endpoint-result: "> 100 µM"
- compound: "Cc1cccc(/C=N\\NC(=S)N2CCCCC2)n1"
  endpoint-result: "> 100 µM"
- compound: "COC1CC(C)([N+](=O)[O-])C(O)C(C)O1 (stereo unspecified)"
  endpoint-result: "> 100 µM"
- compound: "Clc1ccc2ncc(-c3cccc(NC4CNC4)n3)n2c1"
  endpoint-result: "26.4 µM"
- compound: "CCOC(=O)c1nc2ccccc2nc1Nc1ccc(OC)cc1"
  endpoint-result: "> 100 µM"
- compound: "CCOCC(=O)N(C)c1cccc2c3c(n(C)c12)CCCCC3"
  endpoint-result: "> 100 µM"
- compound: "CC(C)CC(NP(=O)(O)OC1OC(C)C(O)C(O)C1O)C(=O)NC(Cc1c[nH]c2ccccc12)C(=O)O (stereo unspecified)"
  endpoint-result: "> 100 µM"
- compound: "C=C1C(=O)O[C@H]2[C@H]1CC/C(Cn1cc(-c3cccc(Cl)c3)nn1)=C\\CC[C@@]1(C)O[C@@H]21"
  endpoint-result: "2.92 µM"
- compound: "CCCCCCCCCCSC(=O)NC"
  endpoint-result: "> 100 µM"
- compound: "CC(C)[Si]1(C(C)C)OCC2OC(n3c(C(=O)c4ccccc4)cc(=O)[nH]c3=O)CC2O[Si](C(C)C)(C(C)C)O1 (stereo unspecified)"
  endpoint-result: "13.1 µM"
- compound: "CC(=O)OCC1OC(OCc2ccccc2)C(Br)C(OC(C)=O)C1OC(C)=O (stereo unspecified)"
  endpoint-result: "> 100 µM"
- compound: "CN(C)/C=N\\c1nncc2[nH]cnc12"
  endpoint-result: "> 100 µM"
- compound: "Cc1cc(S(=O)(=O)Nc2n[nH]c(Nc3ccc4ccccc4c3)n2)c(S)cc1Cl"
  endpoint-result: "> 100 µM"
- compound: "O=C(N/N=C(/c1nc2ccc([N+](=O)[O-])cc2[nH]c1=O)C(O)c1ccc([N+](=O)[O-])cc1)c1ccncc1 (stereo unspecified)"
  endpoint-result: "> 100 µM"
- compound: "Cc1nc(C)c(N2CCN(C(=O)O)CC2)c(=O)[nH]1"
  endpoint-result: "> 100 µM"
- compound: "COc1cc(C2c3[nH]c4ccccc4c3[C@@H](Nc3ccc(C#N)cc3)[C@H]3COC(=O)N23)cc(OC)c1O (stereo partly specified)"
  endpoint-result: "1.2 µM"
